The measurements presented in this section are drawn from patent US12370158B2.

Assay: Ocular pharmacokinetics of Comp-02 after topical administration (instillation) in rabbit
Format: in vivo, pigmented HY79b rabbits
Settings: male, pigmented HY79b, topical or ocular, 50 μl of 1 mg/mL in both eyes, plasma, single instillation 50 μl (1 mg/mL) in both eyes
READOUT KIND: Cmax (ng/mL)
Value expressed in ng/mL; do not type the unit.

Exam item: Requested field: Cmax. Item: CNC(=O)C(=O)NCCCC/C=C\CCCCCCCOCC(=O)O
Marked response: 31

====

Test: Ocular pharmacokinetics of Comp-02 after topical administration (instillation) in rabbit
Type: in vivo, pigmented HY79b rabbits
Details: male, pigmented HY79b, topical or ocular, 50 μl of 1 mg/mL in both eyes, aqueous humor, topical
READOUT KIND: Tmax
Please answer using the number first and the unit second.

Exam item: Requested field: Tmax. Item: CNC(=O)C(=O)NCCCC/C=C\CCCCCCCOCC(=O)O [Comp-02]
Marked response: 1 h

====

Test: Ocular pharmacokinetics of Comp-02 after topical administration (instillation) in rabbit
Format: in vivo, pigmented HY79b rabbits
Conditions: male, pigmented HY79b, topical or ocular, 50 μl of 1 mg/mL in both eyes, plasma, topical
Method: Study design: To gain insight into the distribution behaviour of synthetic 17,18-EEQ-agonists, ocular pharmacokinetic studies were performed in pigmented HY79b rabbits. […] Content of Comp-02 was determined in ocular samples and plasma following an established RRLCMS/MS method. The results are presented in Tables 5-7 and are expressed as mean values for the different pharmacokinetic parameters. […] Apparent Cmax and Tmax, T½, AUC1-48 h were calculated by Excel® software. […]
READOUT KIND: Tmax (min)
Value expressed in min; do not type the unit.

Exam item: Requested field: Tmax. Item: CNC(=O)C(=O)NCCCC/C=C\CCCCCCCOCC(=O)O
Marked response: 30

====

Test: Ocular pharmacokinetics of Comp-02 after topical administration (instillation) in rabbit
Format: in vivo, pigmented HY79b rabbits
Details: male, pigmented HY79b, topical or ocular, 50 μl of 1 mg/mL in both eyes, retina, single instillation 50 μl (1 mg/mL) in both eyes
READOUT KIND: Cmax (ng/g)
Value expressed in ng/g; do not type the unit.

Exam item: Requested field: Cmax. Item: CNC(=O)C(=O)NCCCC/C=C\CCCCCCCOCC(=O)O
Marked response: 24

====

Test: Ocular pharmacokinetics of Comp-02 after oral administration in rabbit
Assay type: in vivo, pigmented HY79b rabbits
Conditions: male, pigmented HY79b; choroid; single oral 2 mg/kg; rabbit
READOUT KIND: Tmax (h)
Value expressed in h; do not type the unit.

Exam item: Requested field: Tmax. Item: CNC(=O)C(=O)NCCCC/C=C\CCCCCCCOCC(=O)O
Marked response: 1

====

Assay: Ocular pharmacokinetics of Comp-02 after intravitreal injection in rabbit
Type: in vivo, pigmented HY79b rabbits
Details: male, pigmented HY79b, other: intravitreal injection, 50 μl of 1 mg/mL in both eyes, vitreous, intravitreal, read-out: AUC1-48 hours
READOUT KIND: AUC (ng·h/mL)
Value expressed in ng·h/mL; do not type the unit.

Exam item: Requested field: AUC. Item: CNC(=O)C(=O)NCCCC/C=C\CCCCCCCOCC(=O)O
Marked response: 55400

====

Test: Ocular pharmacokinetics of Comp-02 after oral administration in rabbit
Type: in vivo, pigmented HY79b rabbits
Settings: male, pigmented HY79b; plasma; single oral 2 mg/kg; rabbit
READOUT KIND: Tmax (h)
Value expressed in h; do not type the unit.

Exam item: Requested field: Tmax. Item: CNC(=O)C(=O)NCCCC/C=C\CCCCCCCOCC(=O)O
Marked response: 1

====

Assay: Ocular pharmacokinetics of Comp-02 after oral administration in rabbit
Type: in vivo, pigmented HY79b rabbits
Settings: male, pigmented HY79b; choroid; single oral 2 mg/kg (0.2 mg/mL); rabbit
READOUT KIND: Cmax (ng/g)
Value expressed in ng/g; do not type the unit.

Exam item: Requested field: Cmax. Item: CNC(=O)C(=O)NCCCC/C=C\CCCCCCCOCC(=O)O
Marked response: 246

====

Test: Ocular pharmacokinetics of Comp-02 after oral administration in rabbit
Type: in vivo, pigmented HY79b rabbits
Conditions: male, pigmented HY79b; retina; single oral 2 mg/kg (0.2 mg/mL); rabbit
READOUT KIND: Cmax (ng/g)
Value expressed in ng/g; do not type the unit.

Exam item: Requested field: Cmax. Item: CNC(=O)C(=O)NCCCC/C=C\CCCCCCCOCC(=O)O
Marked response: 15

====

Assay: Ocular pharmacokinetics of Comp-02 after intravitreal injection in rabbit
Assay type: in vivo, pigmented HY79b rabbits
Settings: male, pigmented HY79b, other: intravitreal, 50 µg/eye, choroid, intravitreal
READOUT KIND: Tmax (h)
Value expressed in h; do not type the unit.

Exam item: Requested field: Tmax. Item: CNC(=O)C(=O)NCCCC/C=C\CCCCCCCOCC(=O)O
Marked response: 1

====

Test: Ocular pharmacokinetics of Comp-02 after intravitreal injection in rabbit
Type: in vivo, pigmented HY79b rabbits
Conditions: male, pigmented HY79b, topical or ocular, 50 μl of 1 mg/mL in both eyes, plasma, single vitreal injection of 50 μl (1 mg/mL) in both eyes
READOUT KIND: Cmax (ng/mL)
Value expressed in ng/mL; do not type the unit.

Exam item: Requested field: Cmax. Item: CNC(=O)C(=O)NCCCC/C=C\CCCCCCCOCC(=O)O
Marked response: 19

====

Test: Ocular pharmacokinetics of Comp-02 after oral administration in rabbit
Format: in vivo, pigmented HY79b rabbits
Conditions: male, pigmented HY79b; aqueous humor; single oral 2 mg/kg (0.2 mg/mL); rabbit
READOUT KIND: Cmax (ng/mL)
Value expressed in ng/mL; do not type the unit.

Exam item: Requested field: Cmax. Item: CNC(=O)C(=O)NCCCC/C=C\CCCCCCCOCC(=O)O [Comp-02]
Marked response: 8

====

Assay: Ocular pharmacokinetics of Comp-02 after oral administration in rabbit
Type: in vivo, pigmented HY79b rabbits
Conditions: male, pigmented HY79b; choroid; single oral 2 mg/kg; rabbit; calculated from the Tmax value
READOUT KIND: half-life (h)
Value expressed in h; do not type the unit.

Exam item: Requested field: half-life. Item: CNC(=O)C(=O)NCCCC/C=C\CCCCCCCOCC(=O)O
Marked response: 9

====

Experiment: Ocular pharmacokinetics of Comp-02 after intravitreal injection in rabbit
Type: in vivo, pigmented HY79b rabbits
Conditions: male, pigmented HY79b, other: intravitreal, 50 µg/eye, retina, intravitreal, calculated from the Tmax value
READOUT KIND: half-life (h)
Value expressed in h; do not type the unit.

Exam item: Requested field: half-life. Item: CNC(=O)C(=O)NCCCC/C=C\CCCCCCCOCC(=O)O
Marked response: 2.6

====

Test: Ocular pharmacokinetics of Comp-02 after intravitreal injection in rabbit
Assay type: in vivo, pigmented HY79b rabbits
Settings: male, pigmented HY79b, other: intravitreal, 50 µg/eye, retina, intravitreal
READOUT KIND: Tmax (h)
Value expressed in h; do not type the unit.

Exam item: Requested field: Tmax. Item: CNC(=O)C(=O)NCCCC/C=C\CCCCCCCOCC(=O)O
Marked response: 1

====

Assay: Ocular pharmacokinetics of Comp-02 after intravitreal injection in rabbit
Format: in vivo, pigmented HY79b rabbits
Conditions: male, pigmented HY79b, other: intravitreal injection, 50 μl of 1 mg/mL in both eyes, choroid, intravitreal, read-out: AUC1-48 hours
READOUT KIND: AUC (ng·h/mL)
Value expressed in ng·h/mL; do not type the unit.

Exam item: Requested field: AUC. Item: CNC(=O)C(=O)NCCCC/C=C\CCCCCCCOCC(=O)O [Comp-02]
Marked response: 63300

====

Experiment: Ocular pharmacokinetics of Comp-02 after intravitreal injection in rabbit
Assay type: in vivo, pigmented HY79b rabbits
Conditions: male, pigmented HY79b, other: intravitreal injection, 50 μl of 1 mg/mL in both eyes, vitreous, intravitreal
READOUT KIND: Tmax (h)
Value expressed in h; do not type the unit.

Exam item: Requested field: Tmax. Item: CNC(=O)C(=O)NCCCC/C=C\CCCCCCCOCC(=O)O
Marked response: 1

====

Test: Ocular pharmacokinetics of Comp-02 after oral administration in rabbit
Type: in vivo, pigmented HY79b rabbits
Conditions: male, pigmented HY79b; plasma; single oral 2 mg/kg (0.2 mg/mL); rabbit
READOUT KIND: Cmax (ng/mL)
Value expressed in ng/mL; do not type the unit.

Exam item: Requested field: Cmax. Item: CNC(=O)C(=O)NCCCC/C=C\CCCCCCCOCC(=O)O [Comp-02]
Marked response: 1210

====

Assay: Ocular pharmacokinetics of Comp-02 after oral administration in rabbit
Type: in vivo, pigmented HY79b rabbits
Conditions: male, pigmented HY79b; retina; single oral 2 mg/kg; rabbit
READOUT KIND: Tmax (h)
Value expressed in h; do not type the unit.

Exam item: Requested field: Tmax. Item: CNC(=O)C(=O)NCCCC/C=C\CCCCCCCOCC(=O)O
Marked response: 4
